B1: Gamma-crystallin D, residues 90 to 170; numbered along this chain, P07320 (parent)
chain: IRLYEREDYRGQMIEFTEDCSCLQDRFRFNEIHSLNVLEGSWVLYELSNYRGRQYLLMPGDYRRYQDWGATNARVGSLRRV

Variants of: B1
Assay: abundance fitness (aPCA) (normalised: wild type 0, dead -1); higher = more abundant; growth selection in yeast, the domain comes from the species named
Settings: Homo sapiens
Definition: the class of an entry is the range in class 0: < -0.1; class 1: ≥ -0.1 and < 0.02; class 2: ≥ 0.02 that contains its abundance fitness.

## Input Assign a bin to Y55G
## Output class 1

## Input Record: D25T
## Output class 0

## Input And the next one, G40Q ?
## Output class 1

## Input And N30I ?
## Output class 2

## Input Can you handle E18W next?
## Output class 0

## Input Query Y4H next
## Output class 2

## Input // query: Y55T
## Output class 2

## Input Consider next the variant G52W in the same way.
## Output class 0

## Input And F16I ?
## Output class 1

## Input Now consider E18D .
## Output class 1

## Input How about this variant: D25A
## Output class 1

## Input Same question for L23S please.
## Output class 2

## Input Also check G52N
## Output class 0

## Input Follow-up item: R28F
## Output class 0

## Input Field entry: C22G
## Output class 1

Provenance of the data: the Human Domainome abundance scans (Beltran et al. 2025)
